Source of measurements: the supplement of paper PMC8540655

- Test system: Aedes aegypti larvae
- method-notes: larval motility relative to same well at 0 h (fraction); higher = more motile (less active compound), active = 0.4 or less
- experimental-parameters: 10 µM; 24 h
Outcome label depends on larval motility relative to 1: at/above gives y, below gives n.

Example cases with answers are listed next.
molecule: O=C(c1cc(O)nc2ccccc12)N1CCN(c2ccccc2)CC1
cat: n

molecule: O=C(Nc1ccc(F)cc1)c1nn(-c2ccccc2)c(=O)cc1Cl
cat: n

molecule: CCCCCOc1ccc(/C=C2\Oc3c(ccc(O)c3O)C2=O)c(O)c1
cat: y

*Q* Reported larval motility at or above 1? "Nc1cc(N)c2nc(-c3ccccc3)c(Nc3ccc(F)cc3)nc2c1"
*A* n

*Q* Reported larval motility at or above 1? CCCCCCCCC(CP(=O)(O)C(C)N)C(=O)O (stereo unspecified)
*A* y
